Recorded bioavailability for the following compounds
- experiment: Oral bioavailability in rat
- Assay type: ADME, organism-based
- test settings: in vivo

molecule	bioavailability
O=C(O)/C=C/c1ccc(NC(=O)C2(NC(=O)c3ccc4c(C5CCCCC5)c5n(c4c3)CC(=O)Nc3cccnc3-5)CCCC2)cc1	< 1%

# input // bioavailability lookup, key: O=C(O)/C=C/c1ccc(NC(=O)C2(NC(=O)c3ccc4c(C5CCCCC5)c5n(c4c3)CCCc3ncccc3-5)CCCC2)cc1
# output 4%

====

- System: Hepatitis C virus
- experiment: Antiviral activity against Hepatitis C virus genotype 1b infected in human HuH7 cells by luciferase reporter gene analysis
- Assay type: functional, organism-based, Hepacivirus hominis
- test settings: Huh-7
Please use the following EC50 ranges when assigning a class: low range = under 20 nM, mid range = from 20 nM up to 80 nM, high range = 80 nM and over

Example results:
molecule	assigned class
O=C(O)/C=C/c1ccc(NC(=O)C2(NC(=O)c3ccc4c(C5CCCCC5)c5n(c4c3)CCCc3nccnc3-5)CCCC2)cc1	mid range
O=C(O)/C=C/c1ccc(NC(=O)C2(NC(=O)c3ccc4c(C5CCCCC5)c5n(c4c3)CCCc3ncccc3-5)CCCC2)cc1	low range
Nc1nc2c(s1)CCCn1c-2c(C2CCCCC2)c2ccc(C(=O)NC3(C(=O)Nc4ccc(/C=C/C(=O)O)cc4)CCCC3)cc21	high range

# input Band for O=C(O)/C=C/c1ccc(NC(=O)C2(NC(=O)c3ccc4c(C5CCCCC5)c5n(c4c3)CCOc3cccnc3-5)CCCC2)cc1 ?
# output mid range

====

- experiment: Half life in rat at 2 mg/kg, iv
- Format: ADME, organism-based
- Parameters: dose 2 mg/kg, route intravenous
- test settings: in vivo
measured metric: half-life
A complete answer gives the number and then names the unit.

# input // half-life lookup, key: O=C(O)/C=C/c1ccc(NC(=O)C2(NC(=O)c3ccc4c(C5CCCCC5)c5n(c4c3)CCCc3ncccc3-5)CCCC2)cc1
# output 1 h

====

- experiment: Inhibition of Hepatitis C virus NS5B RNA-dependent RNA polymerase
- Design: species or system Hepacivirus hominis
Note to self: IC50 under 20 nM means Fulfilled, ties and anything higher get Not fulfilled.

Example results:
molecule	assigned class
Nc1nc2c(s1)CCCn1c-2c(C2CCCCC2)c2ccc(C(=O)NC3(C(=O)Nc4ccc(/C=C/C(=O)O)cc4)CCCC3)cc21	Not fulfilled
O=C(O)/C=C/c1ccc(NC(=O)C2(NC(=O)c3ccc4c(C5CCCCC5)c5n(c4c3)CCCc3ocnc3-5)CCCC2)cc1	Not fulfilled
O=C(O)/C=C/c1ccc(NC(=O)C2(NC(=O)c3ccc4c(C5CCCCC5)c5n(c4c3)CCCc3nccnc3-5)CCCC2)cc1	Not fulfilled
O=C(O)/C=C/c1ccc(NC(=O)C2(NC(=O)c3ccc4c(C5CCCCC5)c5n(c4c3)CCCc3ccccc3-5)CCCC2)cc1	Not fulfilled
O=C(O)/C=C/c1ccc(NC(=O)C2(NC(=O)c3ccc4c(C5CCCCC5)c5n(c4c3)CCOc3cccnc3-5)CCCC2)cc1	Fulfilled
O=C(O)/C=C/c1ccc(NC(=O)C2(NC(=O)c3ccc4c(C5CCCCC5)c5n(c4c3)CC(=O)Nc3cccnc3-5)CCCC2)cc1	Not fulfilled

# input Does the reported IC50 of the following molecule sit strictly below 20 nM? O=C(O)/C=C/c1ccc(NC(=O)C2(NC(=O)c3ccc4c(C5CCCCC5)c5n(c4c3)CCOc3ncccc3-5)CCCC2)cc1
# output Fulfilled

# input Does the reported IC50 of the following molecule sit strictly below 20 nM? Cc1nc2c(s1)CCCn1c-2c(C2CCCCC2)c2ccc(C(=O)NC3(C(=O)Nc4ccc(/C=C/C(=O)O)cc4)CCCC3)cc21
# output Not fulfilled

Reference for the values: ChEMBL document CHEMBL2016551
